Tested on: THP-1
Experiment description: Immunostimulatory activity in human THP1 cells assessed as increase in IL-10 production at 20 ug/ml after 6 to 72 hrs by immunoassay
Assay type: functional, cell-based
Calls of active or inactive are those of the source. The rule behind the calls is not given here.
Measure name: Activity

CCCCCCCCCCCCCC(=O)O[C@H](CCCCCCCCCCC)CC(=O)O[C@@H]1[C@@H](NC(=O)C[C@@H](CCCCCCCCCCC)OC(=O)CCCCCCCCCCC)[C@H](OC[C@H]2OC(O)[C@H](NC(=O)C[C@@H](CCCCCCCCCCC)OC(=O)C[C@H](O)CCCCCCCCCCCCC)[C@@H](O)[C@@H]2O)O[C@H](CO)[C@H]1OP(=O)(O)O (stereo partly drawn): Active
CCCCCCCCCCCCCC(=O)O[C@H](CCCCCCCCCCC)CC(=O)O[C@@H]1[C@@H](NC(=O)C[C@@H](CCCCCCCCCCC)OC(=O)CCCCCCCCCCC)[C@H](OC[C@H]2OC(O)[C@H](NC(=O)C[C@H](O)CCCCCCCCCCC)[C@@H](OC(=O)C[C@H](O)CCCCCCCCCCC)[C@@H]2O)O[C@H](C(=O)O)[C@H]1OP(=O)(O)O (stereo partly drawn): Active
C=CCCCNC(=O)[C@H]1O[C@@H](OC[C@H]2OC(O)[C@H](NC(=O)C[C@H](O)CCCCCCCCCCC)[C@@H](OC(=O)C[C@H](O)CCCCCCCCCCC)[C@@H]2O)[C@H](NC(=O)C[C@@H](CCCCCCCCCCC)OC(=O)CCCCCCCCCCC)[C@@H](OC(=O)C[C@@H](CCCCCCCCCCC)OC(=O)CCCCCCCCCCCCC)[C@@H]1OP(=O)(O)O (stereo partly drawn): Active
